Ref: ChEMBL document CHEMBL5346970

Test: Terminal half life in Sprague-Dawley rat at 0.1 ml/kg, po
Format: ADME
Test settings: in vivo, read-out: beta t1/2 (converted)
Recorded endpoint: half-life

INSERT INTO measurements (molecule, result) VALUES
  ('COc1ccc2cc(OCC3(C(=O)O)CN(C(=O)c4ccc(F)cc4)C3)ccc2c1 [PF-04418948]', '8.8 h');

----------
Target or test system: Prostaglandin E2 receptor EP2 subtype (Mus musculus, UniProt Q62053)
Sequence (Q62053 whole entry): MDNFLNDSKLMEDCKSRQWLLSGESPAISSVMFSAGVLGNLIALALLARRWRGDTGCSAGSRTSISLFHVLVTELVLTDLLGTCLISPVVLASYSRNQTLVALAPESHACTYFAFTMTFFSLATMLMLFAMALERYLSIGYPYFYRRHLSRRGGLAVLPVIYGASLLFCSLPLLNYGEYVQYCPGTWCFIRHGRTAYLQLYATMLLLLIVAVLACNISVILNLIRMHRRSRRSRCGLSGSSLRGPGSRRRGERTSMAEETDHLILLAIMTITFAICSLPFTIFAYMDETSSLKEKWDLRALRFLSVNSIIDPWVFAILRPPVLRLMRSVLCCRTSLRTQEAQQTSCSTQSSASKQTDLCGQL
Test: Antagonist activity at EP2 receptor in C57BL/6 mouse trachea assessed as inhibition of PGE2-induced relaxation in rings of trachea pretreated for 30 mins in presence of carbachol followed by PGE2 relaxation
Format: functional, tissue-based
Recorded endpoint: IC50 (nM)

INSERT INTO measurements (compound, recorded_endpoint, quantitative_result) VALUES
  ('COc1ccc2cc(OCC3(C(=O)O)CN(C(=O)c4ccc(F)cc4)C3)ccc2c1 [PF-04418948]', 'IC50', 2.7);
